- Assay explanation: Solubility of compound in water
- Assay type: physicochemical
- Run conditions: buffer
Readout kind: solubility

Use the examples below as a reference point.
COc1ccc2c(c1)c(-c1[nH]c(NC(C)=O)nc1C)cn2S(=O)(=O)c1cccc2ccccc12 ... Insoluble
CCc1nc(NC(C)=O)[nH]c1-c1cn(S(=O)(=O)c2ccccc2)c2ccc(OC)cc12 ... Insoluble
COc1ccc2c(c1)c(-c1[nH]c(NC(=O)Cc3ccccc3)nc1C)cn2S(=O)(=O)c1ccccc1 ... Insoluble
COc1ccc2c(c1)c(-c1nc(N)sc1C)cn2S(=O)(=O)c1ccc2ccccc2c1 ... Insoluble
Cc1nc(N)[nH]c1-c1ccc2ccn(S(=O)(=O)c3ccccc3)c2c1.Cl ... Soluble

Q: Would you kindly share the measured solubility for CC(=O)N1CCn2c1nc(C)c2-c1cn(S(=O)(=O)c2ccccc2)c2ccccc12 ?
Result: Insoluble

Q: What value of measured solubility is listed for COc1ccc2c(c1)c(-c1[nH]c3nccc[n+]3c1C)cn2S(=O)(=O)c1ccccc1.[Br-] ?
Result: Soluble

Q: Look up solubility for this compound: COc1ccc2c(c1)c(-c1nc(N)sc1C)cn2S(=O)(=O)c1ccccc1
Result: Insoluble

Q: Name the reported solubility value associated with the compound COc1ccc2c(c1)c(-c1cnc(NC(C)=O)[nH]1)cn2S(=O)(=O)c1ccccc1
Result: Insoluble

Q: So what's the measured solubility for this one? Cc1sc(N)nc1-c1cn(S(=O)(=O)c2ccccc2)c2ccccc12
Result: Insoluble

Q: Given CC(=O)Nc1ncc(-c2cn(S(=O)(=O)c3ccccc3)c3ccccc23)[nH]1 , state its recorded solubility.
Result: Insoluble

Q: Could you share which solubility value was measured for COc1ccc2c(c1)c(-c1[nH]c(N)nc1C)cn2S(=O)(=O)c1ccc2ccccc2c1.Cl ?
Result: Soluble
